Measured AUC(0-inf) by item
Test Name: Total AUC (infinity) in dog at 0.5 mg/kg, iv
Format: ADME, organism-based, Canis lupus familiaris
Design: dose 0.5 mg/kg, time AUCmax, route intravenous
Test Settings: in vivo

Structure String: COc1cc2[nH]c(=O)c([C@H](C)Nc3ncc(C#N)c(OC)n3)cc2cc1Cl
AUC(0-inf), µM·h: 5.8

Structure String: COc1nc(N[C@@H](C)c2cc3cc(Cl)ccc3[nH]c2=O)ncc1C#N
AUC(0-inf), µM·h: 3.3

====

Test Name: Metabolic stability in human liver microsomes assessed as compound remaining after 30 mins
Format: ADME, Microsome
Test Settings: read-out: Stability

Compound: Cc1nc(NC(C)(C)c2cc3cc(Cl)ccc3[nH]c2=O)ccc1C#N
remaining at 0.5 h (%): 81

Compound: COc1cc(NCc2cc3ccccc3[nH]c2=O)ccc1C#N
remaining at 0.5 h (%): 35

Compound: Cc1cc(NCc2cc3cc(Cl)ccc3[nH]c2=O)ccc1C#N
remaining at 0.5 h (%): 75

Compound: COc1nc(N[C@@H](C)c2cc3cc(Cl)c(F)cc3[nH]c2=O)ncc1C#N
remaining at 0.5 h (%): 89

Compound: COc1cc(NCc2cc3cc(Cl)c(OCC4CCCCN4C)cc3[nH]c2=O)ccc1C#N (configuration not stated)
remaining at 0.5 h (%): 0

Compound: O=c1[nH]c2ccc(Cl)cc2cc1CNc1ccc(-c2csnn2)cc1
remaining at 0.5 h (%): 82

Compound: COc1cc(N[C@@H](C)c2cc3cc(Cl)ccc3[nH]c2=O)ccc1C#N
remaining at 0.5 h (%): 75

Compound: COc1cc2[nH]c(=O)c([C@H](C)Nc3ncc(C#N)c(OC)n3)cc2cc1Cl
remaining at 0.5 h (%): 97

Compound: COc1cc(NCc2cc3cc(Cl)c(OCc4ccccn4)cc3[nH]c2=O)ccc1C#N
remaining at 0.5 h (%): 30

Compound: COc1cc2[nH]c(=O)c(CNc3ccc(C#N)c(OC)c3)cc2cc1Cl
remaining at 0.5 h (%): 1

Compound: Cc1ccnc(NCc2cc3cc(Cl)ccc3[nH]c2=O)c1
remaining at 0.5 h (%): 76

Compound: N#Cc1ccc(NCc2cc3cc(Cl)ccc3[nH]c2=O)cc1F
remaining at 0.5 h (%): 100

Compound: COc1cc(N[C@@H](C)c2cc3cc(Cl)ccc3[nH]c2=O)ncc1C#N
remaining at 0.5 h (%): 100

Compound: Cc1nc(NC(C)c2cc3cc(Cl)ccc3[nH]c2=O)ccc1C#N (racemic)
remaining at 0.5 h (%): 100

Compound: COc1cc(NCc2cc3cc(Cl)ccc3n(C)c2=O)ccc1-n1cnnn1
remaining at 0.5 h (%): 63.7

Compound: Cc1nc(NCc2cc3cc(Cl)ccc3[nH]c2=O)ccc1C#N
remaining at 0.5 h (%): 84

Compound: COc1cc(NCc2cc3cc(Cl)c(OCc4cc(C)n(C)n4)cc3[nH]c2=O)ccc1C#N
remaining at 0.5 h (%): 32.7

====

Measured fraction unbound by item
Test Name: Protein binding in mouse plasma
Type: ADME, cell-free
Test Settings: read-out: PPB (converted)
Value Type: fraction unbound

Structure String: COc1cc2[nH]c(=O)c([C@H](C)Nc3ncc(C#N)c(OC)n3)cc2cc1Cl
Assay Result: 0.0083
//
Structure String: COc1nc(N[C@@H](C)c2cc3cc(Cl)ccc3[nH]c2=O)ncc1C#N
Assay Result: 0.0193
